These data points were gathered from PubChem BioAssay (NCI).

Test system: SK-MEL-2 melanoma
protocol_description: NCI tumour cell line growth inhibition, 48 h
quantity: TGI

C=CC1=C(C)C2=NC1=CC1=NC(=C(CC)/C1=C\O)C=C1N=C3C(=C1C)C(=O)[C@H](C(=O)OC)C3=C1NC(=C2)[C@@H](C)[C@@H]1CCC(=O)O: > 100 µM

For each of the molecules below, state TGI.
1. CNc1ncnc2c1cnn2Cc1cn(COCC(O)CO)nn1 (centres undefined)
2. Cc1coc2c1C(OC(=O)C(C)C)C1(C)C(C)CCC(O)C1C2=O (centres undefined)
3. O=C1C(Cl)=C(Nc2cccc(C(F)(F)F)c2)C(=O)N1Cc1ccc(Cl)cc1

A.
1: > 100 µM; 2: > 100 µM; 3: > 25.9 µM

====

Tested on: M14 melanoma
protocol_description: NCI tumour cell line growth inhibition, 48 h
quantity: TGI

C=CC(C)(C)C(=C)C(=O)Nc1ccccc1I: > 100 µM

For each of the molecules below, state TGI.
1. N#CC1C=Cc2c(ccc3ccccc23)N1C(=O)c1ccccc1 (stereo not drawn)
2. CCC[CH2][Sn]1([CH2]CCC)[O]CC(C)[O]1 (stereo not drawn)
3. CCOc1ccc2c(c1)c(=O)c1c(NCCN(CC)CC)ccc3nnn2c31

A.
["> 100 µM", "4.87 µM", "> 54.8 µM"]

For each of the molecules below, state TGI.
1. CCN(CC)CCNC(=O)c1cccc2nc3ccccc3nc12
2. COc1cc(CS(=O)c2ccc(O)cc2)cc(OC)c1OC (stereo not drawn)
3. CCCC(=O)[O-].N.N.N.N.N.[Co+3].[O-][Cl+3]([O-])([O-])[O-]
4. O=C(CC/C(CC(=O)c1ccc(Br)cc1)=N\O)Nc1ccc(Cl)c(Cl)c1
5. O=C(c1ccccc1)c1c(C(F)(F)F)n([O-])c2ccc(C(F)(F)F)cc2[n+]1=O
6. [N-]=[N+]=Nc1c([N+](=O)[O-])c(=O)n2c3c(cccc13)CCC2
7. CN1C/C(=C\C=C\c2ccccc2)C(=O)/C(=C/C=C/c2ccccc2)C1
8. CC(=O)c1cc(O)c2ccccc2c1O

A.
1. > 48.7 µM
2. > 100 µM
3. > 100 µM
4. > 100 µM
5. 1.47 µM
6. 26.2 µM
7. > 100 µM
8. 36.7 µM

====

System: HS 578T breast
protocol_description: NCI tumour cell line growth inhibition, 48 h
quantity: TGI

NC(N)=NCCCC(NC(=O)OCCCCn1ccc(N)nc1=O)C(=O)O (stereo not drawn): > 100 µM

For each of the molecules below, state TGI.
1. Cc1cc(Nc2cc(N)ncn2)c(=O)n2c1C(=O)NC21CCCCC1
2. O=C(O)Cn1cc([N+](=O)[O-])c(=O)c2ccccc21
3. Fc1cc(-c2cc(-c3ccc4c(c3)OCO4)n[nH]2)c(Cl)cc1Cl
4. Cc1c(C(=O)O)n2cnnc2c2ccccc12

A.
["> 100 µM", "> 100 µM", "> 45.4 µM", "> 100 µM"]

For each of the molecules below, state TGI.
1. O=c1oc2c(C(F)(F)F)cccc2cc1-c1csc(Nc2ccc(OCCF)cc2)n1
2. C[N+](C)(CCNC(=O)c1cccc2cc3ccccc3nc12)Cc1ccc([N+](=O)[O-])s1
3. COc1ccccc1C(=O)N(C)c1ccc(Cl)c(C(=O)OC(C)C)c1

A.
1. > 69.4 µM
2. > 25 µM
3. > 100 µM

====

Test system: A498 renal
protocol_description: NCI tumour cell line growth inhibition, 48 h
quantity: TGI

# example entries with known answers
C[C@]12CCC(=O)C=C1CC[C@@H]1C2CC[C@]2(C)c3nn(-c4ccccc4)nc3CC12 (stereo not given in full): > 100 µM
C[N+](C)(CCNC(=O)c1cccc2cc3ccccc3nc12)Cc1ccc([N+](=O)[O-])s1: > 25 µM
Cn1cc(C2=C(N3CCOCC3)C(=O)NC2=O)c2ccccc21: > 25 µM
CCOC(=O)[C@@H]1ON2OC(OC3CCCC3(c3ccccc3)c3ccccc3)C(OC(C)=O)[C@H]3OC(=O)[C@@H]1C32 (stereo not given in full): > 100 µM

Q. Given the molecule COc1ccccc1C(=O)N(C)c1ccc(Cl)c(C(=O)OC(C)C)c1 , what is its reported TGI?
A. > 100 µM

====

System: SF-539 CNS
protocol_description: NCI tumour cell line growth inhibition, 48 h
quantity: TGI

CC1(C)CCc2c(c(N=Nc3ccc(F)cc3)c3ccccc3c2O)O1: > 100 µM
COc1ccc2c(c1)OC[C@@H]1c3cc(O)c(OCc4ccccc4)cc3O[C@H]21: > 100 µM
CNc1ncnc2c1cnn2Cc1cn(COCC(O)CO)nn1 (stereo not given): > 100 µM
COc1c(B(O)O)cc(F)cc1-c1nc2ccc3[nH]ncc3c2c2c1CCCC2: 2.24 µM
CC(C)(C)c1ccc(NS(=O)(=O)c2ccc3nc(NC(=O)c4cnccn4)[nH]c3c2)cc1: 4.96 µM
COc1cccc2c1n([O-])c1cccc(OC)c1[n+]2=O: > 100 µM

For each of the molecules below, state TGI.
1. CC1(C)C(=O)/C(=C\c2cccnc2)C[C@]2(C)[C@H]3CC[C@@H]4[C@@H](C(=O)/C=C/c5ccncc5)CC[C@@]4(C)[C@]3(C)CC[C@@H]12
2. C=C1C(=O)O[C@H]2[C@H]1CC/C(COC(=O)NCc1ccc(Cn3c(=O)sn(-c4ccccc4)c3=O)cc1)=C\CC[C@@]1(C)O[C@@H]21
3. Cc1ccc(-n2cc([Si](C)(C)C)nn2)s1
4. Oc1c(CN2CCN(c3ccccc3)CC2)cc(Br)c2cccnc12

A.
1. 3.25 µM
2. 3.06 µM
3. > 100 µM
4. > 28.6 µM

====

Test system: XF 498 CNS
protocol_description: NCI tumour cell line growth inhibition, 48 h
quantity: TGI

# example entries with known answers
CN1C/C(=C\C=C\c2ccccc2)C(=O)/C(=C/C=C/c2ccccc2)C1: > 100 µM
C/C=N\N1C(=O)c2ccccc2C1=O: > 100 µM

As a next step, examine the compound that follows.
Q. Given the compound CC1(C)N=C(c2ccccn2)C(c2ccccn2)=NC1(C)C , what is its reported TGI?
A. > 100 µM

====

Test system: HCT-116 colon
protocol_description: NCI tumour cell line growth inhibition, 48 h
quantity: TGI

# example entries with known answers
O=C1CSc2cc([N+](=O)[O-])ccc2N1: > 100 µM
C/C=N\N1C(=O)c2ccccc2C1=O: > 100 µM

Q. Request body: readout TGI, system HCT-116 colon, query CC(=O)[CH-]C(=O)c1ccccc1.CC(=O)[CH-]C(=O)c1ccccc1.CC[O-].O=C1c2ccccc2C(=O)c2c1ccc(O)c2[O-].[Ti+4] . Return the value.
A. > 100 µM

====

Test system: SNB-75 CNS
protocol_description: NCI tumour cell line growth inhibition, 48 h
quantity: TGI

# example entries with known answers
O=C(O)CCC(NC(=O)c1ccc(Nc2nc3cc(C(F)(F)F)ccc3nc2C(=O)O)cc1)C(=O)O (stereo not drawn): > 100 µM
CCN(CC)CCNC(=O)c1cccc2nc3ccccc3nc12: > 100 µM

Q. Given the compound O=c1c2ccccc2nc(N/N=C/c2ccccc2O)n1-c1ccccc1 , what is its reported TGI?
A. > 100 µM

====

Assignment: determine reported TGI for the given compounds.
System: NCI-H226 lung
protocol_description: NCI tumour cell line growth inhibition, 48 h

Cc1ccc(N=C2C(=Nc3ccc(C)cc3)N(c3ccc(C)cc3)C(=S)N2C(=O)c2ccccc2)cc1: > 100 µM
Cc1ccc(NC(=O)CSC(N)=O)cc1C: > 100 µM

For each of the compounds below, state TGI.
1. Brc1cc2c(cc1Br)CN(c1ccccc1)C2
2. C=C(c1ccccc1)c1ccccc1-c1cc(-c2ccccc2)cc(-c2ccccc2)n1
3. CCN(CC)c1ccc(/C=C/C=C2\NC(=O)NC2=O)cc1
4. COc1ccc2ccc3oc([N+](=O)[O-])cc3c2c1

A.
1: > 100 µM; 2: > 100 µM; 3: > 100 µM; 4: 3.22 µM

====

Assignment: determine reported TGI for the given compounds.
System: MDA-MB-231 breast
protocol_description: NCI tumour cell line growth inhibition, 48 h

COc1ccc(Nc2nc(N)c(C(=O)c3cccs3)s2)cc1: > 80.8 µM

For each of the compounds below, state TGI.
1. CC(=O)c1c2n(n(-c3ccccc3)c1=O)C(=O)c1nccnc1-2
2. CCCCCCCCCCCCCCCCCC(=O)Nc1ccn(C2OC(CO)C(O)C2O)c(=O)n1 (centres undefined)
3. Cc1coc2c1C(OC(=O)C(C)C)C1(C)C(C)CCC(O)C1C2=O (centres undefined)
4. Cc1sc2nc3n(c(=O)c2c1C)N=CN(c1ccc(F)cc1)C3
5. Cc1ccc(-n2cc([Si](C)(C)C)nn2)s1
6. COc1cc(Br)c(CC2C3=C(CCN2C(=O)C2CCC2)CC(=O)CC3)cc1O (centres undefined)
7. C[N+](C)(CCNC(=O)c1cccc2cc3ccccc3nc12)Cc1ccc([N+](=O)[O-])s1

A.
1. > 100 µM
2. > 100 µM
3. > 100 µM
4. > 100 µM
5. > 100 µM
6. > 100 µM
7. > 25 µM

For each of the compounds below, state TGI.
1. Cc1ccc(N=C2C(=Nc3ccc(C)cc3)N(c3ccc(C)cc3)C(=S)N2C(=O)c2ccccc2)cc1
2. COc1c(B(O)O)cc(F)cc1-c1nc2ccc3[nH]ncc3c2c2c1CCCC2
3. O=C(CCc1ccc(O)cc1)N/N=C/c1cc(Br)ccc1O

A.
["> 100 µM", "15 µM", "53.6 µM"]
